measured.on: hGIPR (Homo sapiens, UniProt P48546)
Construct: expressed in transfected cells; host or cells: CHO cells carrying a CRE-luciferase reporter gene
Sequence (P48546 22-466): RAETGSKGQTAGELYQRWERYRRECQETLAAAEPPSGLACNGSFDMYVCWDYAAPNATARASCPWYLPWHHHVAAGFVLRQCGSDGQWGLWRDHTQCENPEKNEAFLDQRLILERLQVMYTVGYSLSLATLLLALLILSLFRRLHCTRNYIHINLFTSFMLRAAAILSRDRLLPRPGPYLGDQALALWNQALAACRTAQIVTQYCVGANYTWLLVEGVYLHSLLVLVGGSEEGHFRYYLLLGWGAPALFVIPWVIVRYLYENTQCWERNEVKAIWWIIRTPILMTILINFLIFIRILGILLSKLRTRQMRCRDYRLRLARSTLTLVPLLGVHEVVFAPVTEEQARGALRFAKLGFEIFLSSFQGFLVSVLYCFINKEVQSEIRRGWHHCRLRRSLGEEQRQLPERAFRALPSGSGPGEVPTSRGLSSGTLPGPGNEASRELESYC
method.summary: hGIPR CreLuc reporter gene assay in 0.5% and 100% plasma
Type: cell-based
experimental.setup: CreLuc reporter gene assay, 100% human plasma; read-out: hGIPR 100% hP
pEC50: −log10 of the molar value. Starred links: 1 amine or outer side, 2 acyl side, 3 side chain; linkers in the order of their positions; H or OH if unused. Non-standard residues stand in square brackets, D forms with d. Groups on a side chain read outwards from the residue. No end group written: not given here. *: point of attachment. C20 diacid = O=C(O)CCCCCCCCCCCCCCCCCCC(=O)*; C18 diacid = O=C(O)CCCCCCCCCCCCCCCCC(=O)*; γGlu = O=C(O)[C@H](CCC(=O)[*:2])N[*:1]; εLys = N[C@@H](CCCCN[*:1])C(=O)[*:2]; AEEA = NCCOCCOCC(=O)O; Aib = CC(C)(N)C(=O)O

substance	pEC50
H-Y[Aib]EGTFTSDYSI[Aib]LEKQAQ[Aib]AFVEWLIK([γGlu-γGlu-γGlu-γGlu-C18 diacid])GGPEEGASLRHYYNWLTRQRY-NH2 [Compound 272]	8.52
H-Y[Aib]EGTFTSDYSI[Aib]LEKQAQ[Aib]AFVEWLIK([εLys-γGlu-γGlu-γGlu-γGlu-γGlu-γGlu-C20 diacid])GGPSSPQSLRHYYNWLTRQRY-NH2 [Compound 41]	9.21
H-Y[Aib]EGTFTSDYSI[Aib]LEKQAQ[Aib]AFVQWLIK([AEEA-AEEA-γGlu-γGlu-γGlu-γGlu-γGlu-C20 diacid])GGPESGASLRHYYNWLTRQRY-NH2 [Compound 32]	8.94
H-Y[Aib]EGTFTSDYSI[Aib]LEKQAE[Aib]AFVEWLIK([γGlu-γGlu-γGlu-γGlu-C18 diacid])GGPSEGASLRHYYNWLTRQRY-NH2 [Compound 262]	9.28
Y[Aib]EGTFTSDYSI[Aib]LEKQAQ[Aib]AFVQWLIK([AEEA-AEEA-γGlu-γGlu-γGlu-γGlu-γGlu-C18 diacid])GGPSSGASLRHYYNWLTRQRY-NH2 [Compound 167]	9.31
H-Y[Aib]EGTFTSDYSI[Aib]LEKQAQ[Aib]EFVEWLIK([AEEA-AEEA-γGlu-γGlu-γGlu-γGlu-C18 diacid])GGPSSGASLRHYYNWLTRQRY-NH2 [Compound 145]	8.91
H-Y[Aib]EGTFTSDYSI[Aib]LEKQAQ[Aib]AFVEWLIK([AEEA-AEEA-γGlu-γGlu-γGlu-γGlu-C18 diacid])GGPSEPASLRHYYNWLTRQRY-NH2 [Compound 256]	8.81
H-Y[Aib]EGTFTSDYSI[Aib]LEKQAQ[Aib]AFVEWLIK([εLys-γGlu-γGlu-γGlu-γGlu-γGlu-γGlu-C20 diacid])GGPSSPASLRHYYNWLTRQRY-NH2 [Compound 95]	9.12
H-Y[Aib]EGTFTSDYSI[Aib]LEKQAQ[Aib]EFVQWLIK([AEEA-AEEA-γGlu-γGlu-γGlu-γGlu-γGlu-C20 diacid])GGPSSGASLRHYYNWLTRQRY-NH2 [Compound 36]	8.80
H-Y[Aib]EGTFTSDYSI[Aib]LEKQAQ[Aib]AFVEWLIK([εLys-γGlu-γGlu-γGlu-γGlu-γGlu-γGlu-C20 diacid])GGPSEGVSLRHYYNWLTRQRY-NH2 [Compound 241]	8.36
H-Y[Aib]EGTFTSDYSI[Aib]LEKQAQ[Aib]AFVQWLIK([εLys-γGlu-γGlu-γGlu-γGlu-γGlu-C20 diacid])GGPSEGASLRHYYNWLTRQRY-NH2 [Compound 242]	8.76
